Test system: RIVA
assay.name: growth inhibition by drug plus 177Lu-lilotomab satetraxetan (1 - RLU/untreated control) (fraction); higher = stronger inhibition
run.conditions: 100 nM; time (day): 6; 177Lu-lilotomab satetraxetan 0.5 ug/ml
Entries and their growth inhibition by drug plus 177Lu-lilotomab satetraxetan values follow.
// keep it numeric: no unit symbol after the value

• Cc1[nH]c2ccccc2c1CCNCc1ccc(/C=C/C(=O)NO)cc1 = 0.987
• Nc1nc(N)c(N=O)c(OCC2CCCCC2)n1 = 0.399
• CCCCCCCc1ccc(CCc2cccc(O)c2C(=O)O)cc1 = 0.624
• COc1ccc2c3n(c(=NC(=O)c4cccnc4)nc2c1OC)CCN3 = 0.551
• CO[C@H]1C[C@@H]2CC[C@@H](C)[C@@](O)(O2)C(=O)C(=O)N2CCCC[C@H]2C(=O)O[C@H]([C@H](C)C[C@@H]2CC[C@@H](O)[C@H](OC)C2)CC(=O)[C@H](C)/C=C(\C)[C@@H](O)[C@@H](OC)C(=O)[C@H](C)C[C@H](C)/C=C/C=C/C=C/1C [Rapamycin (Sirolimus)] = 0.878
• C[C@]12CC[C@H](O)CC1=CC[C@@H]1[C@@H]2CC[C@]2(C)C(c3cccnc3)=CC[C@@H]12 = 0.425

Query molecule follows.
GET /values?readout=growth inhibition by drug plus 177Lu-lilotomab satetraxetan&item= `O=C(O)c1ccc2cc(-c3ccc(O)c(C45CC6CC(CC(C6)C4)C5)c3)ccc2c1`
0.526

====

Test system: RIVA
assay.name: growth inhibition by drug plus 177Lu-lilotomab satetraxetan (1 - RLU/untreated control) (fraction); higher = stronger inhibition
run.conditions: 100 nM; time (day): 6; 177Lu-lilotomab satetraxetan 0.5 ug/ml
Decision: growth inhibition by drug plus 177Lu-lilotomab satetraxetan >= 0.5 yields label 1, all other cases yield label 0.

- O=C(/C=C/c1cccnc1)NCCCCC1CCN(C(=O)c2ccccc2)CC1: label 1

Does the compound COc1cc2nccc(Oc3ccc(NC(=O)NC4CC4)c(Cl)c3)c2cc1C(N)=O [E7080 (Lenvatinib)] have recorded growth inhibition by drug plus 177Lu-lilotomab satetraxetan that is 0.5 or more?
label 0

Threshold query (growth inhibition by drug plus 177Lu-lilotomab satetraxetan >= 0.5) on CNC(=O)c1cc(COc2nnc(Nc3ccc(Cl)cc3)c3ccoc23)ccn1 [Telatinib (BAY 57-9352)]
label 0

Evaluate COc1cc2c(cc1OC)CN(CCc1ccc(NC(=O)c3cccc4c(=O)c5cccc(OC)c5[nH]c34)cc1)CC2 [Elacridar] : growth inhibition by drug plus 177Lu-lilotomab satetraxetan at minimum 0.5?
label 0

Is reported growth inhibition by drug plus 177Lu-lilotomab satetraxetan greater than or equal to 0.5 here: `C[C@@H](Oc1cc(-n2cnc3ccc(CN4CCN(C)CC4)cc32)sc1C(N)=O)c1ccccc1C(F)(F)F`
label 1

Confirm if growth inhibition by drug plus 177Lu-lilotomab satetraxetan reported for the compound `COc1ccc(-c2ccc3c(N4CCOC[C@@H]4C)nc(N4CCOC[C@@H]4C)nc3n2)cc1CO` is 0.5 or above.
label 1

Decide: is the reported value of growth inhibition by drug plus 177Lu-lilotomab satetraxetan for `Cc1cnc(-c2cnc(NCCNc3ccc(C#N)cn3)nc2-c2ccc(Cl)cc2Cl)[nH]1` equal to or greater than 0.5?
label 1

====

Tested on: U-2932
assay.name: growth inhibition by drug plus 177Lu-lilotomab satetraxetan (1 - RLU/untreated control) (fraction); higher = stronger inhibition
run.conditions: 1000 nM; time (day): 3; 177Lu-lilotomab satetraxetan 1 ug/ml
measure.name: growth inhibition by drug plus 177Lu-lilotomab satetraxetan
No unit in the answer, please; the number alone is enough.

Consider the worked cases shown below.
* O=C(/C=C/c1cccc(S(=O)(=O)Nc2ccccc2)c1)NO [Belinostat (PXD101)] | 0.961
* Nc1nccc(Oc2ccc(NC(=O)c3c[nH]cc(-c4ccc(F)cc4)c3=O)cc2F)c1Cl | -0.0589
* CN1C(=O)C(Cc2c[nH]c3ccccc23)NC1=S (configuration not stated) [Necrostatin-1] | -0.0506
* C=CC(=O)Nc1cccc(Oc2nc(Nc3ccc(N4CCN(C)CC4)cc3OC)ncc2Cl)c1 | 0.163

growth inhibition by drug plus 177Lu-lilotomab satetraxetan of `O=C(/C=C/c1cccnc1)NCCCCC1CCN(C(=O)c2ccccc2)CC1` on U-2932?
0.984

Short answer please: growth inhibition by drug plus 177Lu-lilotomab satetraxetan, U-2932, entry `O=c1cc(-c2cccc3c2Sc2ccccc2S3)oc(N2CCOCC2)c1`
-0.108

Lab note: need growth inhibition by drug plus 177Lu-lilotomab satetraxetan with U-2932 for entry C[C@]12CCC(=O)C=C1CC[C@@H]1[C@@H]2[C@@H](O)C[C@@]2(C)[C@H]1CC[C@]2(O)C(=O)CO [Hydrocortisone (Cortisol)] , please look it up.
0.281

Enter reported growth inhibition by drug plus 177Lu-lilotomab satetraxetan observed with U-2932 for C[C@]1(O)C[C@@H](c2nc(-c3ccc4ccc(-c5ccccc5)nc4c3)c3c(N)nccn32)C1 [Linsitinib (OSI-906)]
-0.09

Field: growth inhibition by drug plus 177Lu-lilotomab satetraxetan (U-2932). Entry: O=C1CN2Cc3c(ccc(Cl)c3Cl)N=C2N1 [Anagrelide]
0.0939

Entry `Cc1cnc(NC(=O)Nc2cc(Br)c(C)cc2OC[C@@H]2CNCCO2)cn1` , system U-2932: what growth inhibition by drug plus 177Lu-lilotomab satetraxetan was measured?
0.245

U-2932 / growth inhibition by drug plus 177Lu-lilotomab satetraxetan / CN1CCN(c2nc(C3=C(c4c[nH]c5ccccc45)C(=O)NC3=O)c3ccccc3n2)CC1 [Sotrastaurin (AEB071)] : value?
0.572

I'm curious: which growth inhibition by drug plus 177Lu-lilotomab satetraxetan was measured for CC(C)C[C@@H](C(=O)N[C@H](C(=O)OC1CCCC1)c1ccccc1)[C@H](O)C(=O)NO [Tosedostat (CHR2797)] tested on U-2932?
-0.0889
